Please provide measured % Encapsulation (Ribogreen) for the entries that follow.
test protocol: Encapsulation of mRNA nanoparticles with lipid amines using Ribogreen assay
Format: physicochemical
stated conditions: Luciferase mRNA nanoparticle modified with lipid amine
Structures can show the parent of a compound that is named as a salt.
Provide only the numeric value, understood in %.

Problem: Returns the measured % Encapsulation (Ribogreen) for the input compound. Input: CC[C@H](CC[C@@H](C)[C@H]1CC[C@H]2[C@@H]3CC=C4C[C@@H](OC(=O)N(CCCN)CCCCCCCCN)CC[C@]4(C)[C@H]3CC[C@]12C)C(C)C [SA69, dihydrochloride]
Result: 98.9

Problem: # % Encapsulation (Ribogreen) lookup, item CC[C@H](CC[C@@H](C)[C@H]1CC[C@H]2[C@@H]3CC=C4C[C@@H](OC(=O)CCCC(=O)N(CCCN)CCCCNCCCN)CC[C@]4(C)[C@H]3CC[C@]12C)C(C)C [SA117, trihydrochloride]
Result: 99.7

Problem: Which % Encapsulation (Ribogreen) value belongs to CC[C@H](CC[C@@H](C)[C@H]1CC[C@H]2[C@@H]3CC=C4C[C@@H](OC(=O)CCC(=O)N(CCCCNCCC(C)(C)N)CCC(C)(C)N)CC[C@]4(C)[C@H]3CC[C@]12C)C(C)C [SA161, trihydrochloride] ?
Result: 99.6

Problem: So what's the measured % Encapsulation (Ribogreen) for this one? CC[C@H](CC[C@@H](C)[C@H]1CC[C@H]2[C@@H]3CC=C4C[C@@H](OC(=O)N(CCCN)CCCCCCCCCCN)CC[C@]4(C)[C@H]3CC[C@]12C)C(C)C [SA96, dihydrochloride]
Result: 99.6

###

test protocol: Diameter and PDI from DLS measurements of mRNA nanoparticles with lipid amines
Type: physicochemical
stated conditions: CFTR mRNA nanoparticle with lipid amine
Structures can show the parent of a compound that is named as a salt.
Consider the following compounds; for each one, report its PDI.
// print number alone

Problem: Can you look up the measured PDI of CC(C)CCC[C@@H](C)[C@H]1CC[C@H]2[C@@H]3CC=C4C[C@@H](OC(=O)CCC(=O)N(CCCN)CCCCCCCCN)CC[C@]4(C)[C@H]3CC[C@]12C [SA72, dihydrochloride] for me?
Result: 0.11

Problem: Requested field: PDI. Item: CC(C)CCC[C@@H](C)[C@H]1CC[C@H]2[C@@H]3CC=C4C[C@@H](OC(=O)CC(=O)N(CCCN)CCCCNCCCN)CC[C@]4(C)[C@H]3CC[C@]12C.Cl.Cl.Cl
Result: 0.15

Problem: Data request, read-out PDI, for CC(C)CCC[C@@H](C)[C@H]1CC[C@H]2[C@@H]3CC=C4C[C@@H](OC(=O)N(CCCCNCCC5(N)CC5)CCC5(N)CC5)CC[C@]4(C)[C@H]3CC[C@]12C [SA124, trihydrochloride]
Result: 0.10

Problem: Look at this compound and give its reported PDI. CC[C@H](CC[C@@H](C)[C@H]1CC[C@H]2[C@@H]3CC=C4C[C@@H](OC(=O)CCCC(=O)N(CCCN)CCCCCCCCN)CC[C@]4(C)[C@H]3CC[C@]12C)C(C)C.Cl.Cl
Result: 0.11

Problem: Reported PDI for CC(C)CCC[C@@H](C)[C@H]1CC[C@H]2[C@@H]3CC=C4C[C@@H](OC(=O)N(CCCN)CCCCCCCCCCN)CC[C@]4(C)[C@H]3CC[C@]12C [SA95, dihydrochloride] : what is it?
Result: 0.14

Problem: Suppose we examine the compound CCC(N)(CC)CCNCCCCN(CCC(N)(CC)CC)C(=O)CCSS[C@H]1CC[C@@]2(C)C(=CC[C@H]3[C@@H]4CC[C@H]([C@H](C)CCCC(C)C)[C@@]4(C)CC[C@@H]32)C1 [SA184, trihydrochloride] ; what PDI value has been reported?
Result: 0.13

Problem: Name the reported PDI value associated with the compound CC(C)CCC[C@@H](C)[C@H]1CC[C@H]2[C@@H]3CC=C4C[C@@H](OC(=O)CN(CCCCCCCCN)C(=O)[C@@H](N)CCCN)CC[C@]4(C)[C@H]3CC[C@]12C.Cl.Cl.Cl
Result: 0.12

Problem: Bench note: what PDI did CC(C)CCC[C@@H](C)[C@H]1CC[C@H]2[C@@H]3CC=C4C[C@@H](OC(=O)CCC(=O)N(CCCCNCCC(C)N)CCC(C)N)CC[C@]4(C)[C@H]3CC[C@]12C (stereo partly drawn) [SA160, trihydrochloride] show?
Result: 0.15

Problem: Return reported PDI; argument: CC(C)CCC[C@@H](C)[C@H]1CC[C@H]2[C@@H]3CC=C4C[C@@H](OC(=O)N(CCCCNC(C)CC(C)N)C(C)CC(C)N)CC[C@]4(C)[C@H]3CC[C@]12C.Cl.Cl.Cl (stereo partly drawn)
Result: 0.15

###

I'd appreciate it if you could supply PDI values for the items below.
test protocol: Diameter and PDI from DLS measurements of mRNA nanoparticles with lipid amines
Assay type: physicochemical
stated conditions: CFTR mRNA nanoparticle with lipid amine
Structures can show the parent of a compound that is named as a salt.
Please reply with the number alone, leaving off any unit.

Problem: Report PDI for CC(C)CCC[C@@H](C)[C@H]1CC[C@H]2[C@@H]3CC=C4C[C@@H](OC(=O)N(CCCC(C)(C)N)CCC(C)(C)N)CC[C@]4(C)[C@H]3CC[C@]12C [SA157, dihydrochloride] please.
Result: 0.16

Problem: Which PDI value belongs to CC(C)CCC[C@@H](C)[C@H]1CC[C@H]2[C@@H]3CC=C4C[C@@H](SSCCC(=O)N(CCCCCCCC(C)(C)N)CCC(C)(C)N)CC[C@]4(C)[C@H]3CC[C@]12C.Cl.Cl [SA139] ?
Result: 0.12

Problem: Which PDI reading was recorded for the compound CC(C)CCC[C@@H](C)[C@H]1CC[C@H]2[C@@H]3CC=C4C[C@@H](OC(=O)N(CCCCNCC5(CN)CC5)CC5(CN)CC5)CC[C@]4(C)[C@H]3CC[C@]12C.Cl.Cl.Cl [SA128] ?
Result: 0.13

Problem: I would be grateful if you could share the reported PDI for CC(C)CCC[C@@H](C)[C@H]1CC[C@H]2[C@@H]3CC=C4C[C@@H](OC(=O)CN(CCCCCCCCN)C(=O)CCCCN)CC[C@]4(C)[C@H]3CC[C@]12C [SA122, dihydrochloride] .
Result: 0.13

Problem: Returns the measured PDI for the input compound. Input: CC(C)CCC[C@@H](C)[C@H]1CC[C@H]2[C@@H]3CC=C4C[C@@H](OC(=O)N(CCCCNCC(C)(C)CN)CC(C)(C)CN)CC[C@]4(C)[C@H]3CC[C@]12C [SA77, trihydrochloride]
Result: 0.13

###

test protocol: Diameter and PDI from DLS measurements of mRNA nanoparticles with lipid amines
Assay type: physicochemical
stated conditions: CFTR mRNA nanoparticle with lipid amine
Where a name gives a salt, the structure may show the parent alone.
measured attribute: PDI
Please state the value as a number alone, without comment.

Problem: What does the data say about its PDI? Entry: CC[C@H](CC[C@@H](C)[C@H]1CC[C@H]2[C@@H]3CC=C4C[C@@H](OC(=O)N(CCCCCCN)CCCCCCN)CC[C@]4(C)[C@H]3CC[C@]12C)C(C)C [SA82, dihydrochloride]
Result: 0.13

Problem: Report PDI for CC(C)CCC[C@@H](C)[C@H]1CC[C@H]2[C@@H]3CC=C4C[C@@H](OC(=O)CN(CCCCCCCCN)C(=O)CCCCCN)CC[C@]4(C)[C@H]3CC[C@]12C [SA123, dihydrochloride] please.
Result: 0.12

###

test protocol: Diameter and PDI from DLS measurements of mRNA nanoparticles with lipid amines
Assay type: physicochemical
stated conditions: Luciferase mRNA nanoparticle modified with lipid amine
Structures can show the parent of a compound that is named as a salt.
Record form. Attribute: Diameter (nm). Fill in for each entry.
Give the number; nm is assumed, so skip it.

Problem: # query: Diameter (nm) of entry CC(C)CCC[C@@H](C)[C@H]1CC[C@H]2[C@@H]3CC=C4C[C@@H](OC(=O)N(CCCCCCCC(C)N)CCC(C)N)CC[C@]4(C)[C@H]3CC[C@]12C (stereo partly drawn) [SA151, dihydrochloride]
Result: 72

Problem: Entry CC(C)CCC[C@@H](C)[C@H]1CC[C@H]2[C@@H]3CC=C4C[C@@H](OC(=O)N(CCCN)CCCCOCCCN)CC[C@]4(C)[C@H]3CC[C@]12C [SA61, dihydrochloride] has what Diameter (nm)?
Result: 77

Problem: Given the entry CC(C)CCC[C@@H](C)[C@H]1CC[C@H]2[C@@H]3CC=C4C[C@@H](OC(=O)N(CCCN)CCCCCCCCCCN)CC[C@]4(C)[C@H]3CC[C@]12C [SA95, dihydrochloride] , report its measured Diameter (nm).
Result: 75

###

test protocol: Diameter and PDI from DLS measurements of mRNA nanoparticles with lipid amines
Type: physicochemical
stated conditions: CFTR mRNA nanoparticle with lipid amine
Where a name gives a salt, the structure may show the parent alone.
measured attribute: PDI
The reply should be a number, written without any unit.

Problem: Looking for the measured PDI of CC(C)CCC[C@@H](C)[C@H]1CC[C@H]2[C@@H]3CC=C4C[C@@H](OC(=O)CCCC(=O)N(CCCN(C)C)CCCN(C)C)CC[C@]4(C)[C@H]3CC[C@]12C.Cl.Cl [SA51] , can you help?
Result: 0.15

Problem: Look at this molecule and give its reported PDI. CC(C)CCC[C@@H](C)[C@H]1CC[C@H]2[C@@H]3CC=C4C[C@@H](OC(=O)N(CCCCCCN)CCCCCCN)CC[C@]4(C)[C@H]3CC[C@]12C [SA81, dihydrochloride]
Result: 0.18

Problem: Quick one: PDI of CC(C)CCC[C@@H](C)[C@H]1CC[C@H]2[C@@H]3CC=C4C[C@@H](OC(=O)CC(=O)N(CCCN(C)C)CCCN(C)C)CC[C@]4(C)[C@H]3CC[C@]12C.Cl.Cl [SA50] ?
Result: 0.11

Problem: Looking for the measured PDI of CC(C)CCC[C@@H](C)[C@H]1CC[C@H]2[C@@H]3CC=C4C[C@@H](OC(=O)CCCC(=O)N(CCCCCCCC(C)N)CCC(C)N)CC[C@]4(C)[C@H]3CC[C@]12C (stereo partly shown) [SA142, dihydrochloride] , can you help?
Result: 0.14

Problem: Sample CC(C)CCC[C@@H](C)[C@H]1CC[C@H]2[C@@H]3CC=C4C[C@@H](SSCCC(=O)N(CCCN)CCCCCCCCN)CC[C@]4(C)[C@H]3CC[C@]12C [SA97, dihydrochloride] — what was its PDI?
Result: 0.12

Problem: If you can, please state the reported PDI value of CC(C)CCC[C@@H](C)[C@H]1CC[C@H]2[C@@H]3CC=C4C[C@@H](SSCCC(=O)N(CCCCNCCC(C)(C)N)CCC(C)(C)N)CC[C@]4(C)[C@H]3CC[C@]12C.Cl.Cl.Cl [SA138] .
Result: 0.12

Problem: Reported PDI for CC(C)CCC[C@@H](C)[C@H]1CC[C@H]2[C@@H]3CC=C4C[C@@H](OC(=O)CN(CCCN)CCCCCCCCN)CC[C@]4(C)[C@H]3CC[C@]12C [SA71, trihydrochloride] : what is it?
Result: 0.12

Problem: # get_value(readout='PDI', item= CC(C)CCC[C@@H](C)[C@H]1CC[C@H]2[C@@H]3CC=C4C[C@@H](OC(=O)CCC(=O)N(CCC(C)(C)N)CCC(C)(C)N)CC[C@]4(C)[C@H]3CC[C@]12C [SA169, dihydrochloride] )
Result: 0.14

Problem: Please give the measured PDI for this molecule: CC[C@H](CC[C@@H](C)[C@H]1CC[C@H]2[C@@H]3CC=C4C[C@@H](OC(=O)N(CCCCCCCC(C)N)CCC(C)N)CC[C@]4(C)[C@H]3CC[C@]12C)C(C)C (stereo partly shown) [SA144, dihydrochloride]
Result: 0.12

Problem: Reported PDI, molecule CC[C@H](CC[C@@H](C)[C@H]1CC[C@H]2[C@@H]3CC=C4C[C@@H](OC(=O)N(CCCN)CCCCCCCCCCN)CC[C@]4(C)[C@H]3CC[C@]12C)C(C)C [SA96, dihydrochloride] : ____
Result: 0.12

Taken from patent US20260109732A1.
